# Test system: His-TRAF6_310-522 (TRAF6)
# measurement-description: AlphaScreen PPI assay, TRAF6 binding to GST-LMP1/CD40/RANK proteins
# Design: species or system human
# experimental-setup: source data; One site -- Specific binding with Hill slope
parameter-measured: h (Hill slope, best-fit value)
// return just the number, without any unit appended

Solved cases below.
| molecule | h (Hill slope, best-fit value) |
| --- | --- |
| CD40: recombinant GST-CD40_216-277 (protein, left off: GST, end not stated, kept) KKVAKKPTNKAPHPKQEPQEINFPDDLPGSNTAAPVQETLHGCQPVTQEDGKESRISVQERQ | 2.083 |
| CD40 E235Q (protein, left off: GST, end not stated, kept) KKVAKKPTNKAPHPKQEPQQINFPDDLPGSNTAAPVQETLHGCQPVTQEDGKESRISVQERQ | 1.924 |
| LMP1 Y384F (protein, left off: GST, end not stated, kept) LIWMYYHGQRHSDEHHHDDSLPHPQQATDDSGHESDSNSNEGRHHLLVSGAGDGPPLCSQNLGAPGGGPDNGPQDPDNTDDNGPQDPDNTDDNGPHDPLPQDPDNTDDNGPQDPDNTDDNGPHDPLPHSPSDSAGNDGGPPQLTEEVENKGGDQGPPLMTDGGGGHSHDSGHGGGDPHLPTLLLGSSGSGGDDDDPHGPVQLSFYD | 1.321 |

Please turn your attention to the following entry.
Form field h (Hill slope, best-fit value), entry LMP1 Q381E (protein, left off: GST, end not stated, kept) LIWMYYHGQRHSDEHHHDDSLPHPQQATDDSGHESDSNSNEGRHHLLVSGAGDGPPLCSQNLGAPGGGPDNGPQDPDNTDDNGPQDPDNTDDNGPHDPLPQDPDNTDDNGPQDPDNTDDNGPHDPLPHSPSDSAGNDGGPPQLTEEVENKGGDQGPPLMTDGGGGHSHDSGHGGGDPHLPTLLLGSSGSGGDDDDPHGPVELSYYD : 1.772
